The values you see were collected from paper PMC10058245.

target: VRAC (SWELL1/LRRC8A-containing volume-regulated anion channel) (Homo sapiens, UniProt Q8IWT6); test: whole-cell patch clamp of hypotonicity-induced VRAC currents
Sequence (Q8IWT6 whole entry): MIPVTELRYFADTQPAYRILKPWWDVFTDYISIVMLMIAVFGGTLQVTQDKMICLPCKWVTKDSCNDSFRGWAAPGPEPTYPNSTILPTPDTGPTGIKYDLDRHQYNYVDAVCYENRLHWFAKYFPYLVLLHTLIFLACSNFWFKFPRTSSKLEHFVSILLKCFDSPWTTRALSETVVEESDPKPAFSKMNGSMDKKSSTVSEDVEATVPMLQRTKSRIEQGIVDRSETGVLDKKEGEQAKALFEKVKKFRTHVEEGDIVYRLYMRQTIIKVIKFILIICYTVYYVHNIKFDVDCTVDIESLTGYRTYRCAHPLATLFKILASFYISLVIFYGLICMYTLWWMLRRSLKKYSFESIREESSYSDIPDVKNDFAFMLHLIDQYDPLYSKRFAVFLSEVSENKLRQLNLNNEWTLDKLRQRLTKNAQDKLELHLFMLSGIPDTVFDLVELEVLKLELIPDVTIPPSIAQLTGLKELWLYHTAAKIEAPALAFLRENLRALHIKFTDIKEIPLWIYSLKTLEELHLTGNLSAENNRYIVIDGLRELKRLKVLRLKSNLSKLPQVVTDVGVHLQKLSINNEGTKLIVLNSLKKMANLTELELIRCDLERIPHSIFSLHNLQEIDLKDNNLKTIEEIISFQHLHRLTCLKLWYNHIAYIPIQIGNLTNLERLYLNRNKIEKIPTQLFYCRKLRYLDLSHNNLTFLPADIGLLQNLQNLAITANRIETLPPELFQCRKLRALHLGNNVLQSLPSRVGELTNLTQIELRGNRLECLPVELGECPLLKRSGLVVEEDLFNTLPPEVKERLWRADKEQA
Quick reference for IC50 among some compounds
ASSAY ENDPOINT: IC50

[[record]]
record_smiles = "O=c1oc2ccccc2c(O)c1Cc1c(O)c2ccccc2oc1=O"
assay_endpoint = "IC50"
observed_value = "3.8 µM"

[[record]]
record_smiles = "COc1cc(C(=O)NS(=O)(=O)c2ccccc2C)ccc1Cc1cn(C)c2ccc(NC(=O)OC3CCCC3)cc12"
assay_endpoint = "IC50"
observed_value = "4.9 µM"


---

target: VRAC (Swell1/Lrrc8a-containing volume-regulated anion channel) (Mus musculus); experiment: whole-cell patch clamp of hypotonicity-induced VRAC currents in BV2 microglia
ASSAY ENDPOINT: IC50

[[record]]
record_smiles = "O=c1oc2ccccc2c(O)c1Cc1c(O)c2ccccc2oc1=O"
assay_endpoint = "IC50"
observed_value = "4.1 µM"

